// data source = patent US20240002393A1

Recorded Efficacy (GABA)% for the following molecules
tested-system: h-GABA-A α2β2γ1 (Homo sapiens (Human), UniProt P47869+Q8N1C3)
assay-details: Two-electrode voltage clamp electrophysiology in Xenopus oocytes expressing GABAA receptors
Type: cell-based
condition-label: % modulation of GABA EC20 = 100*(Fold increase−1), compound at 30-fold Ki

| molecule | tested-system | units-symbol | Efficacy (GABA)% |
| --- | --- | --- | --- |
| COC[C@@H]1N=C(c2c(F)cccc2F)c2c(ccc(C(F)(F)F)c2Cl)-n2c(C)nnc21 [Example 105] | h-GABA-A α2β2γ1 (Homo sapiens (Human), UniProt P47869+Q8N1C3) | % | 75 |
| C[C@@H]1N=C(c2c(F)cccc2F)c2c(ccc(Cl)c2Cl)-n2c(-c3cnn(C)c3)nnc21 [Example 53] | h-GABA-A α2β2γ1 (Homo sapiens (Human), UniProt P47869+Q8N1C3) | % | 32 |
| C[C@@H]1N=C(c2ncccc2F)c2c(ccc(Cl)c2Cl)-n2c(-c3cccnn3)nnc21 [Example 63] | h-GABA-A α2β2γ1 (Homo sapiens (Human), UniProt P47869+Q8N1C3) | % | 891 |
| Cc1nnc2n1-c1ccc(C(C)(F)F)c(Cl)c1C(c1c(F)cccc1F)=N[C@H]2C [Example 93] | h-GABA-A α2β2γ1 (Homo sapiens (Human), UniProt P47869+Q8N1C3) | % | 169 |
| Cc1nnc2n1-c1ccc(C(F)(F)F)c(Cl)c1C(c1c(F)cccc1F)=N[C@H]2CO [Example 106] | h-GABA-A α2β2γ1 (Homo sapiens (Human), UniProt P47869+Q8N1C3) | % | 121 |
| CCc1ccc2c(c1Cl)C(c1c(F)cccc1F)=N[C@@H](C)c1nnc(C)n1-2 [Example 109] | h-GABA-A α2β2γ1 (Homo sapiens (Human), UniProt P47869+Q8N1C3) | % | 230 |
| C[C@@H]1N=C(c2ccccc2F)c2c(ccc(Br)c2Cl)-n2cnnc21 [Example 30] | h-GABA-A α2β2γ1 (Homo sapiens (Human), UniProt P47869+Q8N1C3) | % | 57 |
| Cc1cc(-c2nnc3n2-c2ccc(Cl)c(Cl)c2C(c2c(F)cccc2F)=N[C@H]3C)on1 [Example 87] | h-GABA-A α2β2γ1 (Homo sapiens (Human), UniProt P47869+Q8N1C3) | % | 42 |

###

tested-system: human GABAA α1β3γ2 receptor (Homo sapiens (Human), UniProt P14867+P18507)
assay-details: Radioligand binding assay, [3H]Flumazenil competition, γ2-containing GABAA subtypes
condition-label: HEK293F membranes, [3H]Flumazenil 1 nM, mean of two determinations; read-out: Ki h-GABAA α1β3γ2

| compound | units-symbol | Ki |
| --- | --- | --- |
| C[C@@H]1N=C(c2ccccc2F)c2c(ccc(Br)c2Cl)-n2cnnc21 [Example 30] | nM | 582 |
| C[C@@H]1N=C(c2c(F)cccc2F)c2c(ccc(Cl)c2Cl)-n2c(-c3cccnn3)nnc21 [Example 56] | nM | 850 |
| Cc1nnc2n1-c1ccc(Cl)c(Cl)c1C(c1c(F)cccc1F)=N[C@H]2C [Example 82] | nM | 261 |
| Cc1nnc2n1-c1ccc(C(C)(F)F)c(Cl)c1C(c1c(F)cccc1F)=N[C@H]2C [Example 93] | nM | 5960 |

###

Property: γ2/γ1 Selectivity Ratio; scope: individual compounds
tested-system: human GABAA α2β2γ1 receptor (Homo sapiens (Human), UniProt P47869+Q8N1C3)
assay-details: Radioligand binding assay, [3H]RO7239181 competition, γ1-containing GABAA subtypes
condition-label: Ki α1β3γ2 (nM)/Ki α2β2γ1 (nM)
Procedure: The affinity of compounds at GABAA γ1 subunit-containing receptors was measured by competition for [^3H]RO7239181 (67.3 Ci/mmol; Roche) binding to membranes from HEK293F cells (ThermoFisher R79007) expressing human (transiently transfected) receptors of composition α5β2γ1, α2β2γ1, α1β2γ1. […]
readout-name: γ2/γ1 Selectivity Ratio

| chemical-string | tested-system | data-value |
| --- | --- | --- |
| C[C@@H]1N=C(c2c(F)cccc2F)c2c(ccc(Cl)c2Br)-n2c(-c3cccnn3)nnc21 | human GABAA α2β2γ1 receptor (Homo sapiens (Human), UniProt P47869+Q8N1C3) | 87.5 |
| COC[C@@H]1N=C(c2c(F)cccc2F)c2c(ccc(C(F)(F)F)c2Cl)-n2c(C)nnc21 | human GABAA α2β2γ1 receptor (Homo sapiens (Human), UniProt P47869+Q8N1C3) | 73.9 |
| Cc1nccc(-c2nnc3n2-c2ccc(Cl)c(Cl)c2C(c2c(F)cccc2F)=N[C@H]3C)n1 | human GABAA α2β2γ1 receptor (Homo sapiens (Human), UniProt P47869+Q8N1C3) | 32.7 |
| C[C@@H]1N=C(c2c(F)cccc2F)c2c(ccc(Cl)c2Cl)-n2c(-c3cccnn3)nnc21 | human GABAA α2β2γ1 receptor (Homo sapiens (Human), UniProt P47869+Q8N1C3) | 186.8 |

###

Measured LogSel of individual entries
tested-system: human GABAA α2β2γ1 receptor (Homo sapiens (Human), UniProt P47869+Q8N1C3)
assay-details: Radioligand binding assay, [3H]RO7239181 competition, γ1-containing GABAA subtypes
condition-label: Log[Ki α1β3γ2 (nM)/Ki α2β2γ1 (nM)]

| compound | LogSel |
| --- | --- |
| Clc1ccc2c(c1)C(c1ccccc1)=NCc1nncn1-2 [Estazolam, reference compound] | −2.0 |
| Cc1nnc2n1-c1ccc(Cl)c(Br)c1C(c1c(F)cccc1F)=N[C@H]2C [Example 80] | 1.66 |
| Cc1nnc2n1-c1ccc(Cl)cc1C(c1ccccc1Cl)=NC2 [Triazolam, reference compound] | −1.5 |
| OC1N=C(c2c(F)cccc2F)c2c(ccc(Br)c2Cl)-n2cnnc21 (stereo not shown) [Example 31] | 1.24 |

###

tested-system: human GABAA α1β2γ1 receptor (Homo sapiens (Human), UniProt P14867+Q8N1C3)
assay-details: Radioligand binding assay, [3H]RO7239181 competition, γ1-containing GABAA subtypes
condition-label: HEK293F membranes, [3H]RO7239181 20-30 nM, mean of two determinations
Protocol: The affinity of compounds at GABAA γ1 subunit-containing receptors was measured by competition for [^3H]RO7239181 (67.3 Ci/mmol; Roche) binding to membranes from HEK293F cells (ThermoFisher R79007) expressing human (transiently transfected) receptors of composition α5β2γ1, α2β2γ1, α1β2γ1. […]
pKi: −log10 of the molar value.
Below is a list of entries, each paired with its recorded pKi value.

| chemical-string | pKi |
| --- | --- |
| Cc1cc(-c2nnc3n2-c2ccc(Cl)c(Cl)c2C(c2c(F)cccc2F)=N[C@H]3C)nc(C)n1 | 7.55 |
| C[C@@H]1N=C(c2ccccc2F)c2c(ccc(Br)c2Cl)-n2c(-c3cccnn3)nnc21 | 7.48 |
| Cc1nnc2n1-c1ccc(C(C)(F)F)c(Cl)c1C(c1c(F)cccc1F)=N[C@H]2C | 7.07 |
| C[C@@H]1N=C(c2ncccc2F)c2c(ccc(Cl)c2Cl)-n2c(-c3cccnn3)nnc21 | 6.48 |

###

tested-system: human GABAA α2β2γ1 receptor (Homo sapiens (Human), UniProt P47869+Q8N1C3)
assay-details: Radioligand binding assay, [3H]RO7239181 competition, γ1-containing GABAA subtypes
condition-label: Ki α1β3γ2 (nM)/Ki α2β2γ1 (nM)
Description: The affinity of compounds at GABAA γ1 subunit-containing receptors was measured by competition for [^3H]RO7239181 (67.3 Ci/mmol; Roche) binding to membranes from HEK293F cells (ThermoFisher R79007) expressing human (transiently transfected) receptors of composition α5β2γ1, α2β2γ1, α1β2γ1. […]
Tag: met if measured γ2/γ1 Selectivity Ratio is not below 50, not met if it is.

| molecule | category |
| --- | --- |
| C[C@@H]1N=C(c2c(F)cccc2F)c2c(ccc(C(F)(F)F)c2Cl)-n2c(CO)nnc21 | met |
| C[C@@H]1N=C(c2ccccc2F)c2c(ccc(Br)c2Cl)-n2c(-c3cccnn3)nnc21 | met |
| OC1N=C(c2ccccc2F)c2c(ccc(Br)c2Cl)-n2c(-c3cccnn3)nnc21 (stereo not drawn) | not met |
| Cc1nnc2n1-c1ccc(Br)cc1C(c1c(F)cccc1F)=NC2 [RE-A, reference compound] | not met |
| C[C@@H]1N=C(c2c(F)cccc2F)c2c(ccc(Cl)c2Cl)-n2c(-c3cnn(C)c3)nnc21 | met |
| Cc1cc(-c2nnc3n2-c2ccc(Cl)c(Cl)c2C(c2c(F)cccc2F)=N[C@H]3C)on1 | met |
| Cc1nnc2n1-c1cccc(Cl)c1C(c1c(F)cccc1F)=N[C@H]2C [RE-D, reference compound] | not met |
| C[C@@H]1N=C(c2c(F)cccc2F)c2c(ccc(Cl)c2Cl)-n2c1n[nH]c2=O | not met |
| C[C@@H]1N=C(c2c(F)cccc2F)c2c(ccc(Cl)c2Br)-n2c(-c3ccncn3)nnc21 | met |
| C[C@@H]1N=C(c2c(F)cccc2F)c2c(ccc(Cl)c2Br)-n2c(-c3cnn(C)c3)nnc21 | not met |
| Cc1nnc2n1-c1ccc(I)c(Cl)c1C(c1c(F)cccc1F)=N[C@H]2C | not met |
| Cc1nnc2n1-c1ccc(Br)c(Cl)c1C(c1c(F)cccc1F)=N[C@H]2C | not met |
